These measurements were taken from patent US20220106391A1.

We begin with a simple list: items and their reported pKd.
Target Entity: T1, canine beta-NGF (cNGF) (canine, UniProt Q29074 110-229 (pig entry))
T1 construct: also called canine NGF; can NGF
T1 chain: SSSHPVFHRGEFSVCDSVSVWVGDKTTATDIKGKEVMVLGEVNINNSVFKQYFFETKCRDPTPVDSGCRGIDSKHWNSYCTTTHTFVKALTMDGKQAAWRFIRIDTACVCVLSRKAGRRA
Protocol Summary: SPR (Biacore)
pKd: −log10 of the molar value.

Binder	pKd
01B12 Chimera (antibody, V domains shown, Mouse variable domains on canine IgG constant regions; 184 and 160; also called Chim-01B12) VH: QVQLKESGPGLVAPSQSLSITCTVSGFSLTGYGVNWVRQPPGKGLEWLGMIWGDGSTDYNSALKSRLSISKDNSKSQVFLKMNSLQTDDTARYYCARDGYYYGTTWYFDVWGAGTTVTV VL: DIQMTQTTSSLSASLGDRVTISCRASQDISNYLNWYQQKPDGTIKLLIYYTSRLHSGVPSRFSGSGSGTDYSLTISNLEQEDIATYFCQQGSTLPRTFGGGT	8.93
H3AQC23L5A (antibody, V domains shown, Caninized IgG) VH: EVQLVESGGDLARPGGSLKLSCVVSGFTLTQYGINWVRQAPGKGLQWVTVIWATGATDYNSALKSRFTVSRDNAMNTVYLQMNSLRVEDTAVYYCARDGWWYATSWYFDVWGQGTLVTVSS VL: DIVMTQTPLSLSVSPGEPASISCKASQDINHYLNWFRQKPDGTVKLLIYYTSSLHSGVPSRFSGSGSGTDFTLRISRVEADDAGVYYCQQGDHFPRTFGQGT	10.05
H3AQC2301B12L1AL1L3 (ZTS-00103182) (antibody, V domains shown, Caninized IgG; 49 as printed runs on into CH1; the VL entry stops at FGQGT; also called ZTS-182; wt 182) VH: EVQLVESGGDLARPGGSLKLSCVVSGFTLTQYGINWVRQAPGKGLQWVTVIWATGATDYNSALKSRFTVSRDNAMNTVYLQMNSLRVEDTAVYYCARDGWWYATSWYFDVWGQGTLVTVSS VL: DIVMTQTPLSLSVSPGEPASISCKASQDINHYLNWFRQKPDGTVKLLIYYTSRLHSGVPSRFSGSGSGTDFTLRISRVEADDAGVYYCQQGDHFPRTFGQGT	10.21
H3AQC2301B12L1AL1 (antibody, V domains shown, Caninized IgG) VH: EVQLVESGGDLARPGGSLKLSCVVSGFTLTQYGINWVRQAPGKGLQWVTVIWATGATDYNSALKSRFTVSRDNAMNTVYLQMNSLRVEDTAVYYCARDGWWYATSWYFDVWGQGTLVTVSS VL: DIVMTQTPLSLSVSPGEPASISCKASQSINHYLNWFRQKPDGTVKLLIYYTSRLHSGVPSRFSGSGSGTDFTLRISRVEADDAGVYYCQQGSTLPRTFGQGT	8.97
